# system-under-test: NOR-like1 (Solanum lycopersicum (cv. AC), UniProt K4CH25 1-329)
# Sequence (K4CH25 entry or part of it): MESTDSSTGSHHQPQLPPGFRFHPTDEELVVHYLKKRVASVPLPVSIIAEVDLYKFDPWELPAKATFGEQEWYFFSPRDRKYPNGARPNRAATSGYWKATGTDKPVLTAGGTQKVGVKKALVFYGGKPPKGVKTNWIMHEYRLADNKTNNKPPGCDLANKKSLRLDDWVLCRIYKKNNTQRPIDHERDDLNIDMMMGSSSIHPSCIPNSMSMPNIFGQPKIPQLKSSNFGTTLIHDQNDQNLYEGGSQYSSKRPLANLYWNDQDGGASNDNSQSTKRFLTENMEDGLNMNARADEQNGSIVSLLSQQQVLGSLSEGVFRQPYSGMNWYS
# test: EMSA; EMSA kit (Thermo Fisher), manufacturer's instructions; buffer, salt, pH and temperature not stated
# conditions-used: protein: recombinant; tags: GST; chain copies: 2; label: biotin; blunt
measure-name: binding result

{"binder": "SlCEL2 wild (dsDNA) DNA 1: ATCCAATAGCATCCCACCACGTGTCGTAACAATATTGGTTTAACCCCAGG DNA 2: CCTGGGGTTAAACCAATATTGTTACGACACGTGGTGGGATGCTATTGGAT", "test-result": "binds"}
{"binder": "SlEXP1 wild (dsDNA) DNA 1: CTGAAATTTTAGCTAATTTTAACACGTATTCAATTTTGTATGATTGAATG DNA 2: CATTCAATCATACAAAATTGAATACGTGTTAAAATTAGCTAAAATTTCAG", "test-result": "binds"}
{"binder": "SlPG2a wild (dsDNA) DNA 1: TATTTTAAAAAATACACTTAAAAGCGTGACTAAATATAAATTGTTGCTCA DNA 2: TGAGCAACAATTTATATTTAGTCACGCTTTTAAGTGTATTTTTTAAAATA", "test-result": "binds"}
{"binder": "SlSGR1 wild (dsDNA) DNA 1: TAAGCAGTTATGCGTGTGCTGAAGTTGTTATTTCAAACGTGAAAAGGAAA DNA 2: TTTCCTTTTCACGTTTGAAATAACAACTTCAGCACACGCATAACTGCTTA", "test-result": "binds"}
{"binder": "SlGgpps2 wild (dsDNA) DNA 1: TACGTTTAGGATAGGACTTCATTACGTGTCAAGGACAAAAATAAACCTAT DNA 2: ATAGGTTTATTTTTGTCCTTGACACGTAATGAAGTCCTATCCTAAACGTA", "test-result": "binds"}
{"binder": "SlPL wild (dsDNA) DNA 1: TATCAATAACAGATAGTAATTTTACGTAATGATATTGAACGATGTATATA DNA 2: TATATACATCGTTCAATATCATTACGTAAAATTACTATCTGTTATTGATA", "test-result": "binds"}
{"binder": "SlACS4 wild (dsDNA) DNA 1: GTTTTAACTTTTTAAATATTTTGACGTAAGTTTTTTGTTTTCCCCCAAAA DNA 2: TTTTGGGGGAAAACAAAAAACTTACGTCAAAATATTTAAAAAGTTAAAAC", "test-result": "binds"}
{"binder": "SlACS2 wild (dsDNA) DNA 1: AATAAATTCTTTTTGACAGGGTGGCGTAAAAATAATTTTATTTTAAAATA DNA 2: TATTTTAAAATAAAATTATTTTTACGCCACCCTGTCAAAAAGAATTTATT", "test-result": "binds"}
